system: rat small-intestinal brush border membrane vesicles; experiment: Inhibitory effect on 33PO4 uptake into rat small-intestinal brush border membrane vesicles (rapid filtration method); format: biochemical, Wistar female rat; settings: 1 µM test compound; 33PO4 uptake into rat small-intestinal BBMVs, 60 seconds
Each entry below carries its recorded Rate of uptake inhibition (%) (1 µM).

[
  {
    "compound": "Cc1cc(NC(=O)C2=C(O)[C@H]3CCCN3N(Cc3cccc(F)c3)C2=O)c(C(F)(F)F)o1 [Example 2]",
    "data.value": "19%"
  },
  {
    "compound": "C[C@]12CCCN1N(Cc1cc(F)ccc1F)C(=O)C(C(=O)Nc1cc(F)c(Br)c(F)c1)=C2O [Example 193]",
    "data.value": "82%"
  },
  {
    "compound": "CN1N(Cc2ccc(OCCN3C4CCC3COC4)c(F)c2F)C(=O)C(C(=O)Nc2ccc(C(F)(F)F)cc2-c2cc(C(F)(F)F)ncn2)=C(O)C12CCCC2 [Example 367]",
    "data.value": "43%"
  }
]

Turning now to a further compound:
Lookup: Provide the documented Rate of uptake inhibition (%) (1 µM) with rat small-intestinal brush border membrane vesicles as the system for CN1N(Cc2ccc(OCCN3[C@@H]4COC[C@H]3C4)c(F)c2F)C(=O)C(C(=O)Nc2ccc(C(F)(F)F)cc2-c2cc(C(F)(F)F)ncn2)=C(O)C12CCC2 [Example 339]
Found: 66%

Data credit: patent EP2975030B1
